These data points were gathered from patent US20250145585A1.

- target entity: IGF-1R (Homo sapiens, UniProt P08069)
- Construct: expressed in transfected cells
- Sequence (P08069 31-1367): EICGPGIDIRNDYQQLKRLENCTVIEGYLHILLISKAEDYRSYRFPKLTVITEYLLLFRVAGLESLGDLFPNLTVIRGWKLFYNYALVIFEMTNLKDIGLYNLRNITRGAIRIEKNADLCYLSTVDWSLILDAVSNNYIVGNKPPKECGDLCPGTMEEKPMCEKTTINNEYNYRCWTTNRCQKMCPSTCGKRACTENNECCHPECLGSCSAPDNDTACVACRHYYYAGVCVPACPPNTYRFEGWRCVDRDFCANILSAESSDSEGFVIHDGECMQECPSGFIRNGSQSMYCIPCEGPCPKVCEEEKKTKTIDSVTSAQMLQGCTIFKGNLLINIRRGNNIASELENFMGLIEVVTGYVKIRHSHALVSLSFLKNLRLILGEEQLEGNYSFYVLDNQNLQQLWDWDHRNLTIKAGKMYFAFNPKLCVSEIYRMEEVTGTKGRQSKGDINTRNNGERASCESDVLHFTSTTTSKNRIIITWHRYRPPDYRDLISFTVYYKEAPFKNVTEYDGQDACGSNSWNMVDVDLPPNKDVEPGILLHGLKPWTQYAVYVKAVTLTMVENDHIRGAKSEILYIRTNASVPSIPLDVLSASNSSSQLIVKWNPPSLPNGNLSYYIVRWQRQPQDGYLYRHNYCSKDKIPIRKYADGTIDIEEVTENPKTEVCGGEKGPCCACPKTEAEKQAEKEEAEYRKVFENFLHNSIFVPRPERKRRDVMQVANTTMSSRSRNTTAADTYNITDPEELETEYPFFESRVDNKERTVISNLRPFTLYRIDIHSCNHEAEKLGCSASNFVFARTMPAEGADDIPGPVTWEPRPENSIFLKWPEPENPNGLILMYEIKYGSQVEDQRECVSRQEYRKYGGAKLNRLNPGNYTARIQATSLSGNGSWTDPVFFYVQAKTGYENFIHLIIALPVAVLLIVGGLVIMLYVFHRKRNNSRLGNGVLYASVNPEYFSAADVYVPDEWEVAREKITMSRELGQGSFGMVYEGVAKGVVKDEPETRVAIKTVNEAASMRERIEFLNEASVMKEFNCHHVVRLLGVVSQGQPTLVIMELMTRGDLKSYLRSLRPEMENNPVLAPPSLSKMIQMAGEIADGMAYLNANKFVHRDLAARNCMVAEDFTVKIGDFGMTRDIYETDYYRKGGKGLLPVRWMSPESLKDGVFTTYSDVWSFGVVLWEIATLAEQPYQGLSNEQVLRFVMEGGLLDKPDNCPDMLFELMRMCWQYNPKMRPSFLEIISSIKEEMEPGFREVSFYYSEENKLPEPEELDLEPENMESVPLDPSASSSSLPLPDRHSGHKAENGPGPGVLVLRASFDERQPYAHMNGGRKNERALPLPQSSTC
- test description: Example B-2: IGF-1R Assay (PathHunter cell lines, EC80 agonist challenge, chemiluminescent detection)
- Assay type: cell-based
- assay context: PathHunter cells, compound 60 minutes at 37° C., EC80 agonist 3 hours; read-out: IC50, Biological Activity against IGF-1R (Table B2)
- Procedure: PathHunter cell lines were expanded from freezer stocks according to standard procedures. Cells were seeded in a total volume of 20 μL into white walled, 384-well microplates and incubated for the appropriate time prior to testing. Cells are pre-incubated with compound followed by EC80 agonist challenge as follows: • R. 1. […] Compound activity was analyzed using CBIS data analysis suite (ChemInnovation, CA). […]
observable: IC50

>  <molecule smiles>
CC(C)Nc1cc(CN2C(=O)N(c3ccc4c(c3)N(C)CC4(C)C)C(=O)C2(C)C)ccn1

>  <target entity>
IGF-1R (Homo sapiens, UniProt P08069)

>  <recorded value>
≤ 500 nM

$$$$
>  <molecule smiles>
CC1(C)C(=O)N(c2ccc3c(c2)N(S(C)(=O)=O)CC32CCC2)C(=O)N1Cc1ccnc(N[C@@H]2C[C@@H]2F)c1

>  <target entity>
IGF-1R (Homo sapiens, UniProt P08069)

>  <recorded value>
≤ 500 nM

$$$$
>  <molecule smiles>
CC1(C)C(=O)N(c2ccc(C#N)c(C(F)(F)F)c2)C(=O)N1Cc1ccnc2c1CC(=O)N2

>  <target entity>
IGF-1R (Homo sapiens, UniProt P08069)

>  <recorded value>
2000 to 10000 nM

$$$$
>  <molecule smiles>
CC1(C)COc2cc(N3C(=O)N(Cc4ccnc(NC5CCOCC5)c4)C(C)(C)C3=O)ccc21

>  <target entity>
IGF-1R (Homo sapiens, UniProt P08069)

>  <recorded value>
≤ 500 nM

$$$$
>  <molecule smiles>
CC1(C)C(=O)N(c2ccc3c(c2)N(C(=O)C2CC2)CC32CCC2)C(=O)N1Cc1ccnc(NC2CCOCC2)c1

>  <target entity>
IGF-1R (Homo sapiens, UniProt P08069)

>  <recorded value>
≤ 500 nM

$$$$
>  <molecule smiles>
CN(C)CCOc1cc(N2C(=O)N(Cc3ccnc4c3CC(=O)N4)C(C)(C)C2=O)ccc1OC(F)(F)F

>  <target entity>
IGF-1R (Homo sapiens, UniProt P08069)

>  <recorded value>
500 to 2000 nM

$$$$

With those in mind, consider the next compound.
Kindly state the measured IC50 obtained for CC1(C)C(=O)N(c2ccc(C3(C(F)(F)F)CC3)cc2)C(=O)N1Cc1ccnc2c1OCC1(CC1)N2 with IGF-1R (Homo sapiens, UniProt P08069).
≤ 500 nM
